Reported IC50 values for the following compounds.
Target: Prostaglandin G/H synthase 2 (Homo sapiens)
Sequence (P35354 whole entry): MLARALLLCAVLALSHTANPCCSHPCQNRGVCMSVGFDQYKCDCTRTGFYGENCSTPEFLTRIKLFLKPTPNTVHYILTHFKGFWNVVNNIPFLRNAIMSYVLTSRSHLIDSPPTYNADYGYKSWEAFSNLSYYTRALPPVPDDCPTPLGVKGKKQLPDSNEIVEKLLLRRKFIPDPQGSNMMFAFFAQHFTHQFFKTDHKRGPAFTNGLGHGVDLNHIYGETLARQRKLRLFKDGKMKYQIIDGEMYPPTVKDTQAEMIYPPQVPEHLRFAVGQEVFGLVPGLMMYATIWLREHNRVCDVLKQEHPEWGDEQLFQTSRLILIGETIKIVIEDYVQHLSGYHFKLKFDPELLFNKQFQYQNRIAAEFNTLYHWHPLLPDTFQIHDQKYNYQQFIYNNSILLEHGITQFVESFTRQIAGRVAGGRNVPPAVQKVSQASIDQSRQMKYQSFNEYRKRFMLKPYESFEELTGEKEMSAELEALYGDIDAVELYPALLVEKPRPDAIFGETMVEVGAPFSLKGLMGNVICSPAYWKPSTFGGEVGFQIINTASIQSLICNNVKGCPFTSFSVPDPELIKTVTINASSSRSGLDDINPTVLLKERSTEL
Assay: Inhibition of recombinant human COX-2 using arachidonic acid as substrate preincubated for 10 mins followed by substrate addition and measured after 2 mins by ELISA
Entry rule: numbers only, all in nM.

{"compound": "O=C(/N=C1\\SC=C(c2ccc([N+](=O)[O-])cc2)C1c1ccccc1)c1cccc2ccccc12 (stereo not drawn)", "unit-abbreviation": "nM", "IC50": 80}
{"compound": "CCc1cc(OC)c(OC)c(OC)c1", "unit-abbreviation": "nM", "IC50": 180}

As a next step, examine the compound that follows.
Request: IC50, test system Prostaglandin G/H synthase 2 (Homo sapiens), entry "O=C(c1sc(N(c2ccccc2)c2ccccc2)nc1-c1ccc([N+](=O)[O-])cc1)c1cccc2ccccc12"
70

Ref: ChEMBL document CHEMBL5241097
